target: Bcl-xL, Q07817; experiment: peptide SPOT array, c-Myc-tagged receptor at 1 uM or 100 nM, anti-c-Myc-Cy3
Sequence (Q07817 1-209): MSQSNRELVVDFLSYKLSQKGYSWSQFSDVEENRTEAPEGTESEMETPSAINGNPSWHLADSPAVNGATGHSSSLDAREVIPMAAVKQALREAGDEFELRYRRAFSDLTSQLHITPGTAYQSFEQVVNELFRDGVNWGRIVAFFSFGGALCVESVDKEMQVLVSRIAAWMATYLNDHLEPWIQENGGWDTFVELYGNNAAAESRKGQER
measurement-label: SPOT signal as a fraction of Bim BH3's signal on the same receptor and array
One number for each entry.

| binder | numeric-value |
| --- | --- |
| RRTSINVVRHLGIVGECNIQFALHPT [CPS1] | 0.03 |
| FTCKNKFCKPLFWVLDSVNDCGDNSD [ST14] | 0.23 |
| TVATRRLSGFLRTLLDRLEGTKELLS [MINA] | 0.31 |
| EVRSSQFARKDWRSSRRISQVSSGET [NBEAL2] | 0.92 |
| LQLHRVLPPDLKSLGDQYVKDEFRRH [ACN9] | 0.28 |

Okay, here is my list. What is SPOT signal as a fraction of Bim BH3's signal on the same receptor and array for each of these?
1. ALNAQPSAEELSKIADSVNLPLDVVK [ZEB1]
2. LEKQNNSASDLHEISNEILRIIERTG [GPR112]

*A*
1: 0.02; 2: 0.02
